# Test system: A-375
# TEST_DETAILS: Cytotoxicity against human A375 cells after 96 hrs by MTT assay
# Assay type: functional, cell-based
# STATED_CONDITIONS: A-375, 96 h
MEASURED_PARAMETER: pIC50
# pIC50 = -log10(concentration in molar units)

CCOc1cccc(-c2cnc3c(NC)nc4ccccc4n23)c1
6.52

Q: Report pIC50 for CNc1nc2ccccc2n2c(-c3cccc([N+](=O)[O-])c3)cnc12 please.
Ans: 4.40

Q: Looking for the measured pIC50 of CNc1nc2ccccc2n2c(-c3cccc(Br)c3)cnc12 , can you help?
Ans: 6.19

Q: # pIC50 lookup, item CNc1nc2ccccc2n2c(-c3cccc(O)c3)cnc12
Ans: 6.25

Q: Give the measured pIC50 of CNc1nc2ccccc2n2c(-c3cccc(OC)c3)cnc12 .
Ans: 6.70

Q: Suppose we examine the molecule CNc1nc2ccccc2n2c(-c3ccccc3)cnc12 ; what pIC50 value has been reported?
Ans: 5.66

Q: GET /values?readout=pIC50&item= CNc1nc2ccccc2n2c(-c3ccc(OC)cc3)cnc12
Ans: 6.43

Q: Name the reported pIC50 value associated with the molecule CNc1nc2ccccc2n2c(-c3cccc(Cl)c3)cnc12
Ans: 5.75

Q: Quick one: pIC50 of CNc1nc2ccccc2n2c(-c3ccccc3OC)cnc12 ?
Ans: 3.91

Q: Please give the measured pIC50 for this molecule: CCOP(=O)(OCC)C(C)NC(=O)N(CCCl)N=O (configuration not stated)
Ans: 3.76

Q: What value of measured pIC50 is listed for CC(C)Cn1cnc2c(N)nc3ccccc3c21 ?
Ans: 4.15

Q: For CNc1nc2ccccc2n2c(-c3cccc(C(=O)O)c3)cnc12 , what is its reported pIC50?
Ans: 5.46
